Biological target: Prostaglandin E2 receptor EP2 subtype (Homo sapiens)
Test: EP2 receptor modulators, dose response, cell-based, human EP2, PGE2 EC50 shift (AID 1421)
Details: EP2-expressing cells, PGE2 EC50 shift by compound; measured here: PGE2 EC50 at 6.7 uM compound
Metric name: PGE2 EC50 with compound (nM)
Respond with the bare value in nM.

Recorded results for 10 compounds are shown here.
1. O=C(O)c1cccc(NN=C2c3ccccc3-c3ccccc32)c1    0.8
2. CCCCc1nc2sc3c(SCC(=O)NCc4ccco4)ncnc3c2c2c1CCC2    2.5
3. CCOC(=O)Nc1sc2c(c1C(=O)OCC)CCC2    0.84
4. Cn1nc(C(F)(F)F)c(/C=N/OC(=O)c2ccccc2)c1Sc1ccc(Cl)cc1    1.31
5. CCC(C)(C)n1nnnc1C(c1ccncc1)N1CCC(Cc2ccccc2)CC1 (stereo not drawn)    1.85
6. CCOC(=O)c1c(NC(=O)c2ccn(CC)n2)sc2c1CCCC2    1.14
7. O=C(Nc1ccccc1-c1ccccc1)c1ccc(Br)o1    1.27
8. CC(=O)N1N=C2/C(=C/c3ccccc3)CCCC2C1c1ccccc1 (stereo not drawn)    1.25
9. COc1ccc(C(=O)c2ccccc2)c(O)c1    0.92
10. Clc1ccc(COn2c(-c3ccccc3)nc3ccccc32)cc1    2.65

Here's the next entry for you.
Write down PGE2 EC50 with compound measured for item CCOC(=O)c1c(NC(=O)Cn2nnc3ccccc32)sc2c1CCC(C)C2 (stereo not drawn)
1.14
